Where do the numbers come from? From patent EP4768480A1.

Target: SMS2 (Homo sapiens, UniProt Q8NHU3)
Construct: CAO, Yu research team, National Protein Scientific Center (Shanghai); supplied by an outside laboratory, not a commercial vendor
Sequence (Q8NHU3 1-365): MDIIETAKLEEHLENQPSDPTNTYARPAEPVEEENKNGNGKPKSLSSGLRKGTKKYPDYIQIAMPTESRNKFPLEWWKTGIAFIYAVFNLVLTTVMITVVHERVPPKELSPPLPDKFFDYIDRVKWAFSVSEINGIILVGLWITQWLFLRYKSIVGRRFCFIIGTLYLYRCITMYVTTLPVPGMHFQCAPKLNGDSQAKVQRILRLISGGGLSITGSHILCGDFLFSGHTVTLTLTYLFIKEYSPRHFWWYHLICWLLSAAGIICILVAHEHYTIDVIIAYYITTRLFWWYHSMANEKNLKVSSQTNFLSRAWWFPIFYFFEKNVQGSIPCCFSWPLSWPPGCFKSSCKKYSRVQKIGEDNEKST
Assay: SMS2 inhibitory activity in vitro, HPLC fluorescence quantitative detection (C6-NBD-ceramide to C6-NBD-SM)
Format: biochemical
Conditions: 1 µM test compound; SMS2 pure enzyme; 37°C, 30 minutes; average of two measurements; read-out: Inhibition rate on SMS2 at C/µM 1
Description: • 1. Electro-thermostatic water bath, from Shanghai Yiheng Technology Co., Ltd.); • 2. Vortex Mixer, with model ID of XW-80A, from Shanghai Jingke Industrial Co., Ltd.; • 3. […] High Performance Liquid Chromatography Agilent 1100, equipped with a quaternary pump, vacuum degassing, and FLD fluorescence detector, from Agilent Technologies, Palo Alto, CA, USA; • 5. HPLC column COSMOSIL 5C18-MS-II (4.6mm I.D. X 250mm); • 6. […]
Catalogue of inhibition at 1 µM readings, one per entry.
recordedMetric: inhibition at 1 µM (%)

> print(dat)
                            structurestring  assayresult
1  O=C(Nc1cccnc1)c1sccc1OCc1c(F)c(F)cc(F)c1F           67
2  O=C(Nc1cccnc1)c1sccc1OCc1ccccc1OCCc1ccccc1           95
3       Cc1cccc(C)c1COc1ccsc1C(=O)Nc1cccnc1           78
4   CCOC(=O)c1ccccc1COc1ccsc1C(=O)Nc1cccnc1           63
5   O=C(Nc1cccnc1)c1sccc1OCc1ccccc1C(F)(F)F           71
6      O=C(Nc1cccnc1)c1sccc1OCc1cc(O)ccc1Cl           78
